Target: T1, human IL-2Rα (human, UniProt P01589 22-240, limits assumed)
T1 construct: recombinant protein; also called hu IL-2R; human IL-2Ra
T1 sequence: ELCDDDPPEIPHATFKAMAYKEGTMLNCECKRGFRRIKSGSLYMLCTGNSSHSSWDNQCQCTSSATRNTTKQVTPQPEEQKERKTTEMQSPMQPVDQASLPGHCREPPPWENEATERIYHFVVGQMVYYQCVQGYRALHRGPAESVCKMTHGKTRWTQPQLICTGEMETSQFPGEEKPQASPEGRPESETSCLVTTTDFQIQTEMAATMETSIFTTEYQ
Test: ELISA, P.E. on coated antigen
EXPERIMENTAL ENDPOINT: OD (PE binding ELISA) (OD450 nm)
Field: numeric (OD450 nm). Do not append units.

| BINDER | EXPERIMENTAL ENDPOINT | RESULT VALUE |
| --- | --- | --- |
| FJ1427_P035MP05D10 (VHH, periplasmic extract; also called clone nr; 460) VHH: QVQLVESGGGLVQAGGSLRLSCTASGLTFDGYAIGWFRQAPGKEREGVSYITGSDGSTYYRDSVKGRFTISSDNAKSTVYLQMNTLKPEDTAVYYCAVDRLGSRGLYASSWWRSGDMDLWGKGTLVTVSS | OD (PE binding ELISA) | 2.09 |
| FJ1427_P035MP01B12 (VHH, periplasmic extract; also called clone nr; 90) VHH: QVQLQESGGGLVQAGDSLRLSCAASGRSFRNYILAWYRQAPGKEREFLAAISWLDGTFYANSVEGRFTISRDNPKNTVHLQMDGLKPEDTAVYYCAADRGPVRPVLAPDVDYWGQGTQVTVAS | OD (PE binding ELISA) | 3.05 |

Inquiry: Consider the binder FJ1427_P035MP01E10 (VHH, periplasmic extract; also called clone nr; 77) VHH: QVQLVESGGGLVQAGDSLRLSCAASGRSFRNYILAWYRQAPGKEREFLAAISWLDGTLYADSVEDRFTISRDNPKNTVHLQMDSLKPEDTAVYYCAADRGPVRPVLAPDVDYWGQGTQVTVSS . State its measured OD (PE binding ELISA).
Reply text: 2.78

Inquiry: Consider the binder FJ1427_P035MP01F11 (VHH, periplasmic extract; also called clone nr; 86) VHH: QVQLQESGGGLVQAGDSLRLSCAASGRSFRNYILAWYRQAPGKEREFLAAISWLDGTLYADSVEDRFTISRDNPKNTVHLQMDSLKPEDTAVYYCAADRGPVRPVLAPDVDYWGQGTQVTVSS . State its measured OD (PE binding ELISA).
Reply text: 2.74
